Quick list: Ratio per entry.
# Tested on: SK-OV-3
# Measurement Description: Ratio for antiproliferative activity against NTR- SKOV3 cells to NTR+ SKOV3 cells infected with 100 pfu/cell retrovirus after 18 hrs
# Type: functional, Homo sapiens

| Compound | Study System | Ratio |
| --- | --- | --- |
| NC(=O)c1cc(N2CC2)c([N+](=O)[O-])cc1[N+](=O)[O-] | SK-OV-3 | >210 |
| O=[N+]([O-])c1ccc(C2CCNP(=O)(N(CCCl)CCCl)O2)cc1 (racemic; cis) | SK-OV-3 | 150 |
| NP(=O)(OCc1ccc([N+](=O)[O-])cc1)N(CCCl)CCCl (racemic) | SK-OV-3 | >830 |
| O=[N+]([O-])c1ccc(C2CCNP(=O)(N(CCCl)CCCl)O2)cc1 (racemic; trans) | SK-OV-3 | >200 |
| O=[N+]([O-])c1ccc(C2CCOP(=O)(N(CCCl)CCCl)N2)cc1 (racemic; cis) | SK-OV-3 | >1.9 |
| O=[N+]([O-])c1ccc(C2CCOP(=O)(N(CCCl)CCCl)N2)cc1 (racemic; trans) | SK-OV-3 | >4.5 |

* * *

Listed compounds paired with reported T1/2
# Measurement Description: Half life in phosphate buffer at pH 7 at 37 degC assessed as reduction by Escherichia coli nitroreductase by NR assay
# Type: ADME
# Reported Conditions: buffer

| Compound | T1/2 [min] |
| --- | --- |
| O=[N+]([O-])c1ccc(C2CCOP(=O)(N(CCCl)CCCl)N2)cc1 (racemic; cis) | 11.9 |
| O=[N+]([O-])c1ccc(C2CCNP(=O)(N(CCCl)CCCl)N2)cc1 (racemic; trans) | 4.2 |
| O=[N+]([O-])c1ccc(C2CCNP(=O)(N(CCCl)CCCl)O2)cc1 (racemic; cis) | 5.2 |
| O=[N+]([O-])c1ccc(C2CCOP(=O)(N(CCCl)CCCl)N2)cc1 (racemic; trans) | 2.9 |

* * *

# System: nitroreductase
# Measurement Description: Half life in phosphate buffer at pH 7 at 37 degC assessed as reduction by Escherichia coli nitroreductase by NR assay
# Format: ADME
# Reported Conditions: Escherichia coli, Escherichia coli nitroreductase in phosphate buffer
Known half-life of a selection of compounds
Property Label: half-life (min)

| Compound | Value Reported |
| --- | --- |
| O=[N+]([O-])c1ccc(C2CCNP(=O)(N(CCCl)CCCl)O2)cc1 (racemic; trans) | 3.9 |
| NP(=O)(OCc1ccc([N+](=O)[O-])cc1)N(CCCl)CCCl (racemic) | 2.3 |
| O=[N+]([O-])c1ccc(C2CCNP(=O)(N(CCCl)CCCl)N2)cc1 (racemic; cis) | 6.4 |
| NC(=O)c1cc(N2CC2)c([N+](=O)[O-])cc1[N+](=O)[O-] | 5 |

* * *

# System: SK-OV-3
# Measurement Description: Antiproliferative activity against NTR expressing human SKOV3 cells […] after 18 hrs
# Type: functional, cell-based
# Reported Conditions: Homo sapiens, SK-OV-3, 18 h
pIC50: −log10 of the molar value.
Property Label: pIC50

| Compound | Value Reported |
| --- | --- |
| O=[N+]([O-])c1ccc(C2CCNP(=O)(N(CCCl)CCCl)O2)cc1 (racemic; trans) | 5.30 |

* * *

# Tested on: SK-OV-3
# Measurement Description: Antiproliferative activity against NTR expressing human SKOV3 cells after 18 hrs
# Type: functional, cell-based
# Reported Conditions: sk-ov-3
pIC50: −log10 of the molar value.

| Compound | pIC50 |
| --- | --- |
| O=[N+]([O-])c1ccc(C2CCOP(=O)(N(CCCl)CCCl)N2)cc1 (racemic; trans) | 3.68 |
| O=[N+]([O-])c1ccc(C2CCOP(=O)(N(CCCl)CCCl)N2)cc1 (racemic; cis) | 3.28 |

* * *

# System: V79
# Measurement Description: Antiproliferative activity against NTR expressing chinese hamster V79 cells after 1 hr
# Type: functional, cell-based, Cricetulus griseus
# Reported Conditions: v79

| Compound | IC50 |
| --- | --- |
| O=[N+]([O-])c1ccc(C2CCNP(=O)(N(CCCl)CCCl)O2)cc1 (racemic; cis) | 340 nM |

* * *

# Test system: SK-OV-3
# Measurement Description: Antiproliferative activity against human SKOV3 cells infected with 100 pfu/cell retrovirus after 18 hrs
# Type: functional, cell-based
# Reported Conditions: sk-ov-3
Property Label: IC50 (µM)

| Molecule | Value Reported |
| --- | --- |
| O=[N+]([O-])c1ccc(C2CCNP(=O)(N(CCCl)CCCl)O2)cc1 (racemic; cis) | 680 |

* * *

# System: SK-OV-3
# Measurement Description: Antiproliferative activity against NTR expressing human SKOV3 cells […] after 18 hrs
# Type: functional, cell-based
# Reported Conditions: sk-ov-3

| Compound | Study System | IC50 |
| --- | --- | --- |
| O=[N+]([O-])c1ccc(C2CCNP(=O)(N(CCCl)CCCl)O2)cc1 (racemic; cis) | SK-OV-3 | 4.7 µM |
| O=[N+]([O-])c1ccc(C2CCOP(=O)(N(CCCl)CCCl)N2)cc1 (racemic; trans) | SK-OV-3 | 220 µM |
| O=[N+]([O-])c1ccc(C2CCOP(=O)(N(CCCl)CCCl)N2)cc1 (racemic; cis) | SK-OV-3 | 530 µM |
